experiment: logP determination by HPLC on reverse-phase column (EEC Directive 79/831 Annex V.A8); type: physicochemical; conditions: reverse-phase C18 HPLC column, Table 1, 43° C., acidic range pH 2.3, read-out: logP
Quantity: chromatographic logP
// no unit string in output, number only

Inquiry: What chromatographic logP value was documented for this molecule, "Cn1cc(C(=O)Nc2cc(F)ccc2-c2ccc(Cl)c(Cl)c2)c(C(F)(F)F)n1" ?
Reply text: 3.75

Inquiry: // repeat for "Cn1cc(C(=O)Nc2ccc(F)cc2-c2ccc(Cl)c(Cl)c2)c(C(F)F)n1" and report
Reply text: 3.33

Inquiry: // repeat for "Cn1cc(C(=O)Nc2ccc(F)cc2-c2ccc(Cl)c(Cl)c2)c(C(F)(F)F)n1" and report
Reply text: 3.57

Inquiry: // repeat for "Cn1cc(C(=O)Nc2cc(F)ccc2-c2ccc(F)c(Cl)c2)c(C(F)(F)F)n1" and report
Reply text: 3.51

Inquiry: // repeat for "Cn1cc(C(=O)Nc2cc(F)ccc2-c2ccc(F)c(Cl)c2)c(C(F)F)n1" and report
Reply text: 3.29

Inquiry: // repeat for "Cn1cc(C(=O)Nc2cc(F)ccc2-c2ccc(Cl)c(Cl)c2)c(C(F)F)n1" and report
Reply text: 3.55

Inquiry: // repeat for "Cn1cc(C(=O)Nc2ccc(F)cc2-c2ccc(F)c(Cl)c2)c(C(F)F)n1" and report
Reply text: 3.07

Inquiry: // repeat for "Cn1cc(C(=O)Nc2c(F)cccc2-c2ccc(Cl)c(Cl)c2)c(C(F)F)n1" and report
Reply text: 3.1

Inquiry: // repeat for "Cn1cc(C(=O)Nc2ccc(F)cc2-c2ccc(F)c(Cl)c2)c(C(F)(F)F)n1" and report
Reply text: 3.26
